system: grass carp pituitary cells; experiment: Receptor antagonist / pathway inhibitor co-treatment on HK2-induced mRNA expression in grass carp pituitary cells; assay type: cell-based, grass carp (Ctenopharyngodon idellus); details: inhibitor 10 μM with HK2 1 μM, 24 h co-treatment
OBSERVATION TYPE: effect on HK2-induced SLα mRNA expression

| COMPOUND | TARGET OF ASSAY | RECORDED RESULT |
| --- | --- | --- |
| COc1ccc2c(c1)CC[C@@H]1[C@@H]2CC[C@]2(C)[C@@H](NCCCCCCN3C(=O)C=CC3=O)CC[C@@H]12 [U73122] | grass carp pituitary cells | totally abolished |
| CN(C)CCCn1cc(C2=C(c3c[nH]c4ccccc34)C(=O)NC2=O)c2ccccc21 [GF109203X] | grass carp pituitary cells | totally abolished |
| Cl.c1ccc(C2CCCC2NC2=NCCCCCCCCCCC2)cc1 (stereo not drawn) [MDL12330A] | grass carp pituitary cells | effective in blocking |
| O=S(=O)(NCCNC/C=C/c1ccc(Br)cc1)c1cccc2cnccc12 [H89] | grass carp pituitary cells | effective in blocking |
| NCCOB(c1ccccc1)c1ccccc1 [2-APB] | grass carp pituitary cells | totally abolished |
